Please go through the items and note down their Activity.
test system: Rattus norvegicus; assay: Toxicity assessed as ulcerogenic effect in Albino rat at 30 mg/kg, po twice a day after 3 days; type: organism-based; design: dose 30 mg/kg, route oral; conditions: in vivo, 72 h
Form entry: value (%) — number only.

**Query** Fill in: Activity of CC(C)Cc1ccc(C(C)c2nnc(Nc3ccc(Br)cc3)[nH]2)cc1 (stereo not given) is ___
**Result** 33.3

**Query** For COc1ccc2cc(C(C)c3nnc(Nc4cccc(Cl)c4)[nH]3)ccc2c1 (stereo not given) then?
**Result** 0

**Query** Please give the result for `COc1ccc2c(c1)c(CC(=O)O)c(C)n2C(=O)c1ccc(Cl)cc1` too.
**Result** 100

**Query** Then this compound: CC(c1ccc(-c2ccccc2)c(F)c1)c1nnc(Nc2ccc(Br)cc2)[nH]1 (stereo not given)
**Result** 0

**Query** Now give it for CC(c1ccc(-c2ccccc2)c(F)c1)c1nnc(Nc2cccc(Cl)c2)[nH]1 (stereo not given) too.
**Result** 0

// data source = ChEMBL document CHEMBL1142876
